# assay-target: "5-HT1 -like" receptor (Oryctolagus cuniculus, UniProt P49144)
# Sequence (P49144 whole entry): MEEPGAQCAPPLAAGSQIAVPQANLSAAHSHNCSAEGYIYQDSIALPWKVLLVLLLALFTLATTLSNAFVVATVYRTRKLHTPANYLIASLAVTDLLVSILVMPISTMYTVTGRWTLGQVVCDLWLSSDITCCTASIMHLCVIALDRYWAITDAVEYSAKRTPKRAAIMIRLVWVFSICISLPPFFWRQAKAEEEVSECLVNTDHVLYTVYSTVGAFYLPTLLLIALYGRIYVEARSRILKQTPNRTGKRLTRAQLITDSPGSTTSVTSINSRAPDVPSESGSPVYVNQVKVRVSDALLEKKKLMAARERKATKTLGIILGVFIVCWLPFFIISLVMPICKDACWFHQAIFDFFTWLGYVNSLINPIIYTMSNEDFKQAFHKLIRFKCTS
# protocol-notes: Agonist activity, contraction of rabbit lateral saphenous vein rings
outcome-measure: pEC50
In textbook form, pEC50 equals minus log to base ten of the concentration in mol/L.

Give the measured pEC50 of CN(C)CCc1c[nH]c2ccc(C[C@H]3COC(=O)N3)cc12 [2/3, hydrate] .
7.00

Give the measured pEC50 of CN1CCC(c2c[nH]c3ccc(CC4COC(=O)N4)cc23)CC1 (racemic) .
6.30
